assay system: T1, Spy (wild type) (E. coli, UniProt P77754 24-161)
T1 construct: N-terminal serine introduced from the Sumo fusion construct used for purification; numbers count on: the mature protein; construct as in Quan et al., 2011; also called WT; wild-type Spy; source: purified from a Sumo fusion construct (Quan et al., 2011); not shown: SUMO, N-terminal, cleaved (from the N-terminal serine left on the protein)
T1 sequence: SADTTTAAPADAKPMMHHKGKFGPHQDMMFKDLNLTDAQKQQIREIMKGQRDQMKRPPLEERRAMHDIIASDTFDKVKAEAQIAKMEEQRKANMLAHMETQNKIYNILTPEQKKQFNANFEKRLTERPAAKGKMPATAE
assay procedure: ITC; Spy with full length Im7 L53A I54A or purified Im7 peptides; conditions and who was titrated not told
run parameters: both partners purified
# key: entry, value: Kd
Record the result as a number with its unit.

Field: example entries. Status: answers known.
{"columns": ["binder", "result"],
 "data": [
  ["SISDYTEAEFVQLLKEIEKENVAATDDVLDVLLEHFVKIT (N-terminal serine introduced from the Sumo fusion construct; immunity protein 7 (Im7), residues 7-45; Called a 40-amino acid peptide: 39 residues of Im7 and the N-terminal serine; An equimolar mixture of unlabelled and 15N-labelled peptide was used for PICUP and EDC; also called Im7 L53A I54A 7-45 peptide; source: expressed in vivo as a Sumo fusion construct, purified; not shown: SUMO, …) [Im7 7-45 peptide]", "2600 nM"],
  ["SEAEFVQLLKEIEKENVAATDDVLDVLLEHFVKIT (N-terminal serine from the Sumo fusion construct; the footnote says it of Im7 purification in general; immunity protein 7 (Im7), residues 12-45; source: expressed in vivo, purified; not shown: SUMO, N-terminal, cleaved (from the N-terminal serine said of Im7 purification in general)) [Im7 12-45 peptide]", "8000 nM"],
  ["Im7 L53A I54A (natural protein, N-terminal serine from the Sumo fusion construct; the footnote says it of Im7 purification in general; immunity protein 7 (Im7), colicin E7 immunity protein; also called full length Im7 L53A I54A; immunity protein 7 L53A I54A; source: purified from a Sumo fusion construct (Quan et al., 2011); not shown: SUMO, N-terminal, cleaved (from the N-terminal serine said of Im7 purification in general)) SMELKNSISDYTEAEFVQLLKEIEKENVAATDDVLDVLLEHFVKITEHPDGTDAAYYPSDNRDDSPEGIVKEIKEWRAANGKPGFKQG", "2500 nM"]
]}

[Q] Quick one: Kd of SLKNSISDYTEAEFVQLLKEIEKENVAATDDVLDVLLEHFVKIT (N-terminal serine from the Sumo fusion construct; the footnote says it of Im7 purification in general; immunity protein 7 (Im7), residues 3-45; source: expressed in vivo, purified; not shown: SUMO, N-terminal, cleaved (from the N-terminal serine said of Im7 purification in general)) [Im7 3-45 peptide] ?
[A] 2300 nM
